- STUDY SYSTEM: FrmR (Salmonella enterica, UniProt A0A0H3NLH8, C35A)
- METHOD NOTES: biochemical
MEASURED ATTRIBUTE: Kd

Kindly note: FrmR (Salmonella enterica, UniProt A0A0H3NLH8, C35A), C=O , Kd value reported: > 100 µM

###

- STUDY SYSTEM: FrmR (Salmonella enterica, UniProt A0A0H3NLH8)
- Sequence (A0A0H3NLH8 2-91): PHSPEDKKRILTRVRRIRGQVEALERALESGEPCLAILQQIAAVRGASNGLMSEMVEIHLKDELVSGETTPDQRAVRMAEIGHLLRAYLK
MEASURED ATTRIBUTE: Kd

Per the records, this molecule ( C=O [formaldehyde] ) has Kd equal to 10 to 20 µM

###

- STUDY SYSTEM: FrmR (Salmonella enterica, UniProt A0A0H3NLH8, P2S)
- METHOD NOTES: biochemical
pKd: −log10 of the molar value.
MEASURED ATTRIBUTE: pKd

For C=O the compound record lists pKd as < 4.30
